target-or-test-system: Fes (UniProt P07332)
Sequence (P07332 whole entry, looked up): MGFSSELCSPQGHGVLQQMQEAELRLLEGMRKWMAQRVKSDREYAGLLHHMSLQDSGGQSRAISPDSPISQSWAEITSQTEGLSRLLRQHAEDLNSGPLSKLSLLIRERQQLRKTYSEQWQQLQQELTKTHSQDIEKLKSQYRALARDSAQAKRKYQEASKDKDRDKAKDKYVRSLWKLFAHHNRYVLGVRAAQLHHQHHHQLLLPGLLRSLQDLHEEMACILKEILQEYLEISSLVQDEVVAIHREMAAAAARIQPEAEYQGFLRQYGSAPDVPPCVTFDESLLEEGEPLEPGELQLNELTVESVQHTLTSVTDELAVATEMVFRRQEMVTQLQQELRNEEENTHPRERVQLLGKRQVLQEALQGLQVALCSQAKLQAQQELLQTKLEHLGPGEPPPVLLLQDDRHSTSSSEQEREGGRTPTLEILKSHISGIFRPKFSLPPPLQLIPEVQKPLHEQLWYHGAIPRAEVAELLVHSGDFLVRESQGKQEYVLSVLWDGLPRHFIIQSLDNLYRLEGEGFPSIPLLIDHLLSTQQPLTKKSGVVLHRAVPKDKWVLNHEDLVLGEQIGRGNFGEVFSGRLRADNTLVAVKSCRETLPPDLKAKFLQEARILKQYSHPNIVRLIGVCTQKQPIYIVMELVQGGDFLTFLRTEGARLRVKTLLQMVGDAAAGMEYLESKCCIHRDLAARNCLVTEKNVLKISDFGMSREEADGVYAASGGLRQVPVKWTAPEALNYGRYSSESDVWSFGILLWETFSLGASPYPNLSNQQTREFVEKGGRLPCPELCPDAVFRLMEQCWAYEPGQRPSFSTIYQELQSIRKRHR
assay-protocol: phosphorylation enrichment, bacterial display (enrichment ratio); higher = better substrate or ligand; peptides without Tyr show the background;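 also: 11-residue human phosphosite peptides and single-mutation variants displayed on the E. coli surface, counted by deep sequencing, each peptide's frequency after selection divided by its frequency in the unselected input library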;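 also: frequency after pTyr selection over input frequency; kinase dosed for 20-30% of maximal phosphorylation in three min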
So basically: phosphorylation enrichment at 1 or higher? That is Satisfied. Lower than 1? That is Not satisfied.

{"input-sequence": "FDNPVYQKTTE [LDLR_Y828]", "assigned-label": "Not satisfied"}
{"input-sequence": "SVTCPYSPALN [TP53_Y126_T125P]", "assigned-label": "Satisfied"}
{"input-sequence": "PVDNLYAEPAV [PRPS1_Y146]", "assigned-label": "Satisfied"}
{"input-sequence": "RFMELYDLNRD [BBS2_Y648_YF]", "assigned-label": "Satisfied"}
{"input-sequence": "VFDHIYTTQSD [RET_Y928_L923V]", "assigned-label": "Not satisfied"}

Please examine the following record next.
Task item: hey, is phosphorylation enrichment for this one >= 1? KLQKYYRQNPD [EHHADH_Y683]
Reply: Not satisfied
